# credit: the Kinase Knowledgebase extract (Sharma et al. 2016)

target: CDK2 (UniProt P24941); experiment: Enzyme Assay; details: concentration not given here
inhibition values for the compounds below.
Dear colleague, please return just the value in %, with no unit written.

Worked examples follow.
{"columns": ["cpd_smiles", "measured_parameter", "measured_number"],
 "data": [
  ["COc1cccc(-c2csc(-c3sc(Nc4cc(OC)c(OC)c(OC)c4)nc3N)n2)c1", "inhibition", -0.4],
  ["COc1cc(Nc2nc(N)c(-c3nc(-c4ccccc4OC(=O)c4ccccc4)cs3)s2)cc(OC)c1OC", "inhibition", 4.6],
  ["COc1cc(Nc2nc(N)c(-c3nc(-c4ccc[nH]4)cs3)s2)cc(OC)c1OC", "inhibition", 14.3],
  ["CCCCCc1ccc(-c2csc(-c3sc(Nc4cc(OC)c(OC)c(OC)c4)nc3N)n2)cc1", "inhibition", 11.3],
  ["COc1cc(Nc2nc(N)c(-c3nc(-c4cc(C)sc4C)cs3)s2)cc(OC)c1OC", "inhibition", 7.3]
]}

Lab note: need inhibition with CDK2 (UniProt P24941) for entry COc1cc(Nc2nc(N)c(-c3nc(-c4ccc(C)cc4C)cs3)s2)cc(OC)c1OC , please look it up.
1.2

// repeat for COc1cc(Nc2nc(N)c(-c3nc(-c4cc(-c5ccccc5)no4)cs3)s2)cc(OC)c1OC and report
11.2

// repeat for CCc1cc2c(cc1-c1csc(-c3sc(Nc4cc(OC)c(OC)c(OC)c4)nc3N)n1)C(C)(C)CCC2(C)C and report
13.8

// repeat for CC(C)c1ccc(Nc2nc(N)c(-c3nc(-c4ccc(OC(=O)c5ccccc5)cc4)cs3)s2)cc1 and report
7.3

---

molecular target: UniProt:P24941; test: Enzyme Assay; settings: concentration not given here
inhibition values for the molecules below.
Dear colleague, please return just the value in %, with no unit written.

Worked examples follow.
{"columns": ["cpd_smiles", "inhibition / %"],
 "data": [
  ["COc1ccc(-c2csc(-c3sc(Nc4ccc(C(C)C)cc4)nc3N)n2)c(OC)c1", -22.6],
  ["CC(C)c1ccc(Nc2nc(N)c(-c3nc(-c4ccc5oc6ccccc6c5c4)cs3)s2)cc1", -4.3],
  ["COc1cc(Nc2nc(N)c(-c3nc(-c4ccc(CC(=O)O)s4)cs3)s2)cc(OC)c1OC", 26.7],
  ["COc1cc(Nc2nc(N)c(-c3nc(-c4cccc(OC(=O)c5ccccc5)c4)cs3)s2)cc(OC)c1OC", -12.3],
  ["CN(C)c1ccc(Nc2nc(N)c(-c3nc(-c4ccccc4[N+](=O)[O-])cs3)s2)cc1", 8.3]
]}

What inhibition value was documented for this molecule, CCOC(=O)c1cc(-c2csc(-c3sc(Nc4cc(OC)c(OC)c(OC)c4)nc3N)n2)on1 ?
23.2

// repeat for Nc1nc(Nc2ccc(S(N)(=O)=O)cc2)sc1-c1nc(-c2ccc(-c3ccccc3)cc2)cs1 and report
0

// repeat for COc1ccc(-c2csc(-c3sc(Nc4cc(OC)c(OC)c(OC)c4)nc3N)n2)c(OC)c1 and report
4.9

// repeat for COc1ccc(OC)c(-c2csc(-c3sc(Nc4cc(OC)c(OC)c(OC)c4)nc3N)n2)c1 and report
12.2

// repeat for Cc1c(-c2csc(-c3sc(Nc4ccc(C(C)C)cc4)nc3N)n2)sc2ccc(Cl)cc12 and report
34.8

---

molecular target: CDK2 (UniProt P24941); test: Enzyme Assay; conditions: concentration not given here
measured_parameter: inhibition (%)
Dear colleague, please return just the value in %, with no unit written.

Worked examples follow.
{"columns": ["cpd_smiles", "inhibition, %"],
 "data": [
  ["COc1cc(Nc2nc(N)c(-c3nc(-c4ccc(O)c(O)c4)cs3)s2)cc(OC)c1OC", -10.3],
  ["COc1cc(Nc2nc(N)c(-c3nc(-c4ccc5c(c4)CCC(=O)N5)cs3)s2)cc(OC)c1OC", -7.8],
  ["COc1ccccc1-c1csc(-c2sc(Nc3ccc(N(C)C)cc3)nc2N)n1", -6.4],
  ["COc1cc(Nc2nc(N)c(-c3nc(-c4ccc5c(c4)C(C)(C)CCC5(C)C)cs3)s2)cc(OC)c1OC", 4.2]
]}

What inhibition value was documented for this compound, Nc1nc(Nc2ccc(S(N)(=O)=O)cc2)sc1-c1nc(-c2ccc(Cl)cc2Cl)cs1 ?
36

---

pKi values for the compounds below.
target: CDK2 (UniProt P24941); test: Enzyme Assay
On this scale, pKi is minus log10 of a concentration expressed in M (mol/L).

Worked examples follow.
{"columns": ["cpd_smiles", "measured_number"],
 "data": [
  ["Nc1nc(Nc2ccc(S(N)(=O)=O)cc2)sc1-c1nc(C(=O)Nc2ccccc2)cs1", 7.24],
  ["Nc1nc(Nc2ccc(S(N)(=O)=O)cc2)sc1-c1nc(-c2cc3ccccc3s2)cs1", 5.49]
]}

Now take the following compound into account.
Lab note: need pKi with CDK2 (UniProt P24941) for entry COc1cc(O)c(Br)c(-c2csc(-c3sc(Nc4cc(OC)c(OC)c(OC)c4)nc3N)n2)c1 , please look it up.
6.15

---

biological target: UniProt P24941; test: Enzyme Assay; conditions: concentration not given here
measured_parameter: inhibition (%)
Dear colleague, please return just the value in %, with no unit written.

{"columns": ["compound", "inhibition [%]"],
 "data": [
  ["COC(=O)c1ccc(-c2csc(-c3sc(Nc4cc(OC)c(OC)c(OC)c4)nc3N)n2)cc1", 0],
  ["COc1cc(Nc2nc(N)c(-c3nc(-c4c(Cl)c(Cl)nc(Cl)c4Cl)cs3)s2)cc(OC)c1OC", 10.3],
  ["CCOC(=O)c1ccccc1-c1csc(-c2sc(Nc3cc(OC)c(OC)c(OC)c3)nc2N)n1", 4.4],
  ["COc1cc(Nc2nc(N)c(C3=NC(c4cc(F)c(C)c(Cl)c4)CS3)s2)cc(OC)c1OC (centres undefined)", -7.5],
  ["COc1ccc2nc(-c3ccccc3)c(-c3csc(-c4sc(Nc5cc(OC)c(OC)c(OC)c5)nc4N)n3)cc2c1", -2.7]
]}

What inhibition value was documented for this compound, COc1cc(Nc2nc(N)c(-c3nc(-c4cccc(Br)c4)cs3)s2)cc(OC)c1OC ?
15.6

// repeat for Cc1c(-c2csc(-c3sc(Nc4ccc(N(C)C)cc4)nc3N)n2)sc2ccc(Cl)cc12 and report
27.2

// repeat for CC(C)c1ccc(Nc2nc(N)c(-c3nc(-c4ccccc4)cs3)s2)cc1 and report
20.9

// repeat for COc1cc(Nc2nc(N)c(-c3nc(-c4ccc(C#N)cc4)cs3)s2)cc(OC)c1OC and report
15.6

---

target: CDK2 (UniProt P24941); assay: Enzyme Assay; details: concentration not given here
measured_parameter: inhibition
Dear colleague, please send the value followed by its unit.

{"columns": ["cpd_smiles", "inhibition"],
 "data": [
  ["Nc1nc(Nc2ccc(S(N)(=O)=O)cc2)sc1-c1nc(-c2ccc(F)cc2F)cs1", "57%"],
  ["CN(C)c1ccc(Nc2nc(N)c(-c3nc(-c4cccc(OC(=O)c5ccccc5)c4)cs3)s2)cc1", "27.1%"],
  ["COc1ccccc1-c1csc(-c2sc(Nc3cc(OC)c(OC)c(OC)c3)nc2N)n1", "-3.5%"],
  ["COc1cc(Nc2nc(N)c(-c3nc(-c4ccc(Cl)c(C)c4)cs3)s2)cc(OC)c1OC", "-4.4%"],
  ["COc1cc(Nc2nc(N)c(-c3noc(-c4ccsc4)n3)s2)cc(OC)c1OC", "21%"],
  ["Cc1c(F)cc(-c2csc(-c3sc(Nc4ccc(S(N)(=O)=O)cc4)nc3N)n2)cc1Cl", "25%"],
  ["COc1cc(Nc2nc(N)c(-c3nc(-c4ccc5oc6ccccc6c5c4)cs3)s2)cc(OC)c1OC", "19%"],
  ["COc1cc(Nc2nc(N)c(-c3nc(-c4ccc(Cl)cc4Cl)cs3)s2)cc(OC)c1OC", "3.8%"],
  ["CCCCCc1ccc(-c2csc(-c3sc(Nc4ccc(S(N)(=O)=O)cc4)nc3N)n2)cc1", "-9.9%"]
]}

Now take the following compound into account.
What inhibition value was documented for this compound, COc1cc(Nc2nc(N)c(-c3nc(-c4ccc(C)cc4)cs3)s2)cc(OC)c1OC ?
-2.1%

---

target: CDK2 (UniProt P24941); assay: Enzyme Assay; conditions: concentration not given here
inhibition values for the compounds below.
Dear colleague, please return just the value in %, with no unit written.

Worked examples follow.
{"columns": ["cpd_smiles", "system", "value_units", "inhibition"],
 "data": [
  ["COc1cc(Nc2nc(N)c(-c3nc(-c4c(Cl)cc(C(F)(F)F)cc4Cl)cs3)s2)cc(OC)c1OC", "CDK2 (UniProt P24941)", "%", -6],
  ["COc1cc(Nc2nc(N)c(-c3nc(-c4ccc(O)cc4)cs3)s2)cc(OC)c1OC", "CDK2 (UniProt P24941)", "%", 3],
  ["CN(C)c1ccc(Nc2nc(N)c(-c3nc(-c4ccc5c(c4)CCC(=O)N5)cs3)s2)cc1", "CDK2 (UniProt P24941)", "%", -2.5]
]}

What inhibition value was documented for this compound, N#Cc1ccc(-c2csc(-c3sc(Nc4ccc(S(N)(=O)=O)cc4)nc3N)n2)cc1 ?
13.3

// repeat for COc1cc(Nc2nc(N)c(-c3nc(-c4cc(C(=O)C(Cl)(Cl)Cl)n(C)c4)cs3)s2)cc(OC)c1OC and report
3.9

// repeat for COc1cc(Nc2nc(N)c(-c3nc(-c4cc(C(C)(C)C)c(O)c(C(C)(C)C)c4)cs3)s2)cc(OC)c1OC and report
5.3

// repeat for COc1cc(Nc2nc(N)c(-c3nc(-c4ccc(-c5ccc(Cl)cc5Cl)o4)cs3)s2)cc(OC)c1OC and report
12.4

// repeat for COc1cc(OC)c(-c2csc(-c3sc(Nc4cc(OC)c(OC)c(OC)c4)nc3N)n2)c(O)c1Cl and report
11.8
